# experimental.target: Voltage-dependent T-type calcium channel subunit alpha-1H (Homo sapiens) (UniProt O95180)
# Sequence (O95180 whole entry): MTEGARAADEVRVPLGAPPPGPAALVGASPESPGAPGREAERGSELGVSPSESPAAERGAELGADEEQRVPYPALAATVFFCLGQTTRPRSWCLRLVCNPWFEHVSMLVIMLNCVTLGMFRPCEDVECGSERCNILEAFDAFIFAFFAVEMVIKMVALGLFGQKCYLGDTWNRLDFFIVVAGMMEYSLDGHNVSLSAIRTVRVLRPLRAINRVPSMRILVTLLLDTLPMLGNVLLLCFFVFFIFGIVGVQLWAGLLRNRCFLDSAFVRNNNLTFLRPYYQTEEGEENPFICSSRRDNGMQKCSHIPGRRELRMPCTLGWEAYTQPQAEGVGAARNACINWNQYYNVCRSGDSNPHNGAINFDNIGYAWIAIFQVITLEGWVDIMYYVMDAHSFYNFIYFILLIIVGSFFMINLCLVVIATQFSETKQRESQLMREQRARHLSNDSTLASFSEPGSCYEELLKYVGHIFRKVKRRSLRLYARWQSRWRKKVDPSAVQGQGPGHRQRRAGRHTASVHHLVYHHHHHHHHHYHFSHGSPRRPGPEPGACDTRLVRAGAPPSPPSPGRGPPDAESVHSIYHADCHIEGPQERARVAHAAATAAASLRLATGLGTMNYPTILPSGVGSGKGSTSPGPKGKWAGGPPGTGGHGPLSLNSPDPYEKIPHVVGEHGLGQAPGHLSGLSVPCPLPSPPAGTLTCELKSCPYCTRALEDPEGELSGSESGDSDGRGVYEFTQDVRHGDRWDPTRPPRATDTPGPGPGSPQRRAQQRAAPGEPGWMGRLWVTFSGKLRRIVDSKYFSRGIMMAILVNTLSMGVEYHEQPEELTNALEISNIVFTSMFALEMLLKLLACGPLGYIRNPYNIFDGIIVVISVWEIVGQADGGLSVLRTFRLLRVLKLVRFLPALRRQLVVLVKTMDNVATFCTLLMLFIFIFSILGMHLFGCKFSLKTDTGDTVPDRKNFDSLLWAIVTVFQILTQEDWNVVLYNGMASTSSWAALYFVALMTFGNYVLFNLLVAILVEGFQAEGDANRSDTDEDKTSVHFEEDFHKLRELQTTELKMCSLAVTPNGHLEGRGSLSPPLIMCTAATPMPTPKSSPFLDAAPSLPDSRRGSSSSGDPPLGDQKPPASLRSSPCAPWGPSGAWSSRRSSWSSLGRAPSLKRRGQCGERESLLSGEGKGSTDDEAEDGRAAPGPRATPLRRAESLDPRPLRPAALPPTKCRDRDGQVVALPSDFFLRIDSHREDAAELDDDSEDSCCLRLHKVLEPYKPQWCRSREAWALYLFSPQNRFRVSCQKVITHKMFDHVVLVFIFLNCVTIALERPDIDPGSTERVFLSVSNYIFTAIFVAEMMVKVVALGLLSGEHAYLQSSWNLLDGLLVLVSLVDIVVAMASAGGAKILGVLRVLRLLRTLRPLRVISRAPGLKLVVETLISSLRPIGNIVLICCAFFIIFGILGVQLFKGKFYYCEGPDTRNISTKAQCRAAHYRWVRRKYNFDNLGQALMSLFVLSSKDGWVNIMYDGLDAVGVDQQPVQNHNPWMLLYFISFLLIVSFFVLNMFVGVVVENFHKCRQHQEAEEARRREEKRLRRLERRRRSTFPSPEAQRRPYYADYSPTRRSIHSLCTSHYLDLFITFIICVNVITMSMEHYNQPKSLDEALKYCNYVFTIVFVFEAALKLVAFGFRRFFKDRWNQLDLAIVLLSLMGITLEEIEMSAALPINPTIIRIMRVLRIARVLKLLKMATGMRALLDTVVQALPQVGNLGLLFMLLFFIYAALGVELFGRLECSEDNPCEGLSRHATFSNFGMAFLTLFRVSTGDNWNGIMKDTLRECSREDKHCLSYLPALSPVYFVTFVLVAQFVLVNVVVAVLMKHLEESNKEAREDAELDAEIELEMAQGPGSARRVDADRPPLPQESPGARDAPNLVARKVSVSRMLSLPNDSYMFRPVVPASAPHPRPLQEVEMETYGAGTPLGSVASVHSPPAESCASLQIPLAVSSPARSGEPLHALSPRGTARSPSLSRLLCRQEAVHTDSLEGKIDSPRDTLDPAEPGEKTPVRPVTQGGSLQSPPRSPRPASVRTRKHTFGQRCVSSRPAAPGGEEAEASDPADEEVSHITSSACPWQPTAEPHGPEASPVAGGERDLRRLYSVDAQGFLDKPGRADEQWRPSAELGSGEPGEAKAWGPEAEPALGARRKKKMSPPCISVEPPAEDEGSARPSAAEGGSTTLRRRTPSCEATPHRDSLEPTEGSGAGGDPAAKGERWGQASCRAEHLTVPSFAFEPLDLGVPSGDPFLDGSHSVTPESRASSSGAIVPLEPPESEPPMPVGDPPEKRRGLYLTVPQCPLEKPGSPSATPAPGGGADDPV
# test.summary: In vitro inhibitory effect on alpha-1H T-type [Ca2+] channels expressed in Xenopus oocytes at 100 uM
# Format: functional, cell-based
# particulars: Oocyte
endpoint.name: inhibition (%)
One number for each entry, in %.

Worked examples follow.
>>> recorded_measurement("CN1CCN(C2=Nc3ccccc3C(CC(=O)NCc3ccccc3)N2c2ccccc2)CC1 (stereo not given)")
70.3
>>> recorded_measurement("O=C(CC1c2ccccc2N=C(N2CCCCC2)N1c1ccccc1)NCc1ccccc1 (stereo not given)")
77
>>> recorded_measurement("COC(=O)CC1c2ccccc2N=C(N2CCN(C)CC2)N1C1CCCCC1 (stereo not given)")
3
>>> recorded_measurement("COC(=O)CC1c2ccccc2N=C(N2CCN(C)CC2)N1c1ccccc1 (stereo not given)")
15

For the next question, use this compound.
Per the record, O=C(CC1c2ccccc2N=C(N2CCCCC2)N1c1ccccc1)NCc1ccc(NS(=O)(=O)c2ccc(F)cc2)cc1 (stereo not given) has inhibition of 80.5

====

# experimental.target: Voltage-dependent T-type calcium channel subunit alpha-1G (Homo sapiens, UniProt O43497)
# Sequence (O43497 whole entry): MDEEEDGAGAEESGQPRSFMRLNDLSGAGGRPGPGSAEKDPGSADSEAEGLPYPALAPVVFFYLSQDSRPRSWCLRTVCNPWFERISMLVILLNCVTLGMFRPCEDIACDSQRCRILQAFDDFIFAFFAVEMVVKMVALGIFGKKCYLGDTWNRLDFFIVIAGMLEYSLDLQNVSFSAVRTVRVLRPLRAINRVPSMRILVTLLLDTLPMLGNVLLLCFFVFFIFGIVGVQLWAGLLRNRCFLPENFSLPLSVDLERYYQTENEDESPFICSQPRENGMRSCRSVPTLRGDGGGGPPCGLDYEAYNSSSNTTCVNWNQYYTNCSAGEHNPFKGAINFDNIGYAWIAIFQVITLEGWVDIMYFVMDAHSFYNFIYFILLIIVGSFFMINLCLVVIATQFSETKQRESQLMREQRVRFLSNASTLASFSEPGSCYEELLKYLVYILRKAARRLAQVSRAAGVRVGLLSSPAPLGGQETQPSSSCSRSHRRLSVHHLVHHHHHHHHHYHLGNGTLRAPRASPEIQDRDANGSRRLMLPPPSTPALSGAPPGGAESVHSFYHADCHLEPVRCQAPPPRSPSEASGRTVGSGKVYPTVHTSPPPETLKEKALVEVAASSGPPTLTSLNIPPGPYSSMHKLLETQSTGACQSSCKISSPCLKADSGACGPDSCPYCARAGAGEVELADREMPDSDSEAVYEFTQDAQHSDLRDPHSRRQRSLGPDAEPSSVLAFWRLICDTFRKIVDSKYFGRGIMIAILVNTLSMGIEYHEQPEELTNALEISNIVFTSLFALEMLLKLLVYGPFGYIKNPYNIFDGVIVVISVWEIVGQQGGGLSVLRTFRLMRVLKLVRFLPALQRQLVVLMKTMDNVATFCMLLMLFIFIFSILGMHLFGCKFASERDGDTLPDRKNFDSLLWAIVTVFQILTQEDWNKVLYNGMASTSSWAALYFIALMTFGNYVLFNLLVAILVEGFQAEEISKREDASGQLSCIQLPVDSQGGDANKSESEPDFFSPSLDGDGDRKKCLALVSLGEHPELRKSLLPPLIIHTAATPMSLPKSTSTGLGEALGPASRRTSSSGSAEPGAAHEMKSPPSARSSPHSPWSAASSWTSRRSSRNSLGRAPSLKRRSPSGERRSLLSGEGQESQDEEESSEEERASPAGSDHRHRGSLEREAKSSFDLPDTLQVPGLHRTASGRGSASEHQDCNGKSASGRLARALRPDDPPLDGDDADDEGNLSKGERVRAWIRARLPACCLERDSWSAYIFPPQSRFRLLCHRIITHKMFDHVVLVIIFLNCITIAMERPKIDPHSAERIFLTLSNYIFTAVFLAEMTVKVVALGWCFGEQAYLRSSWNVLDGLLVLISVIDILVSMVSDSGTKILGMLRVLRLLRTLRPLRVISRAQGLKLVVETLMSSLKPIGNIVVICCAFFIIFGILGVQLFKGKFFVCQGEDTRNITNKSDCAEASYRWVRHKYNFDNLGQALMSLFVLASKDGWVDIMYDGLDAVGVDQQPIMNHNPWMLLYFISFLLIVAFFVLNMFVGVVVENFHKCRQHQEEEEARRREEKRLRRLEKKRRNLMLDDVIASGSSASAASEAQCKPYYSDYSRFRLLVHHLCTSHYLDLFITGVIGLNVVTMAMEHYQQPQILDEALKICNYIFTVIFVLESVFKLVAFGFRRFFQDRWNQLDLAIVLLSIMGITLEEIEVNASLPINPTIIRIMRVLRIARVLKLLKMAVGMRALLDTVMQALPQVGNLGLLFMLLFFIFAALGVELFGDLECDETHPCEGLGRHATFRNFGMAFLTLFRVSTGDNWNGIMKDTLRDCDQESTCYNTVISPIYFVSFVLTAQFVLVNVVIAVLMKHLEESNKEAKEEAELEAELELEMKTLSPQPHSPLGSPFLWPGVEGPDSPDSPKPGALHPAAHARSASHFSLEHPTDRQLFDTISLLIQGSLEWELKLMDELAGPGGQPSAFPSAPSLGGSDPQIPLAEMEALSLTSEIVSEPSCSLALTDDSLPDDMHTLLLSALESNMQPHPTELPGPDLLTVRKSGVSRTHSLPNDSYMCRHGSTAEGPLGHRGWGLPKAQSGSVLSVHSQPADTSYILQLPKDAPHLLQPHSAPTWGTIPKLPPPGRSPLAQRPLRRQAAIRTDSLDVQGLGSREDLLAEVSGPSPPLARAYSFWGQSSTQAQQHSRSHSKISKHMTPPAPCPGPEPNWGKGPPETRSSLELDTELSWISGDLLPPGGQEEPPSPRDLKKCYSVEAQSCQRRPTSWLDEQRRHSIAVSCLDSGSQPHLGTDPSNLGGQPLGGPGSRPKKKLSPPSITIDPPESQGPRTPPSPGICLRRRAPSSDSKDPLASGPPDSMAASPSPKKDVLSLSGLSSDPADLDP
# test.summary: Concentration of the compounds required for inhibition of HEK293 cells (alpha1G T-type)
For each entry below, report its IC50 value.
Give bare numbers, in µM.

Worked examples follow.
>>> recorded_measurement("O=C(CC1c2ccccc2N=C(N2CCOCC2)N1c1ccccc1)NCc1ccccc1 (centres undefined)")
21.6
>>> recorded_measurement("Nc1ccc(CNC(=O)CC2c3ccccc3N=C(N3CCCCC3)N2c2ccccc2)cc1 (centres undefined)")
14.4
>>> recorded_measurement("Cc1ccc(S(=O)(=O)Nc2ccc(CNC(=O)CC3c4ccccc4N=C(N4CCCCC4)N3c3ccccc3)cc2)cc1 (centres undefined)")
0.25
>>> recorded_measurement("COC(=O)CC1c2ccccc2N=C(N2CCCCC2)N1c1ccccc1 (centres undefined)")
27.7
>>> recorded_measurement("O=C(CC1c2ccccc2N=C(N2CCCCC2)N1c1ccccc1)NCc1ccc([N+](=O)[O-])cc1 (centres undefined)")
2.5
>>> recorded_measurement("O=C(CC1c2ccccc2N=C(N2CCCCC2)N1c1ccccc1)NCc1ccccc1 (centres undefined)")
0.9
>>> recorded_measurement("COC(=O)CC1c2ccccc2N=C(c2ccccc2)N1c1ccccc1 (centres undefined)")
10.7
>>> recorded_measurement("O=C(CC1c2ccccc2N=C(N2CCCCC2)N1c1ccccc1)NCc1ccc(NS(=O)(=O)c2ccc(F)cc2)cc1 (centres undefined)")
0.2

For the next question, use this compound.
Per the record, CN1CCN(C2=Nc3ccccc3C(CC(=O)NCc3ccccc3)N2c2ccccc2)CC1 (centres undefined) has IC50 of 35.8

====

# experimental.target: Voltage-dependent N-type calcium channel subunit alpha-1B (Homo sapiens)
# test.summary: Inhibition of HVA N-type [Ca2+] channels of major pelvic ganglion (MPG) neurons at 10 uM
# Format: functional
endpoint.name: inhibition (%)
Give bare numbers, in %.

Please give inhibition for each item listed below.
1. O=C(CC1c2ccccc2N=C(N2CCCCC2)N1c1ccccc1)NCc1ccc([N+](=O)[O-])cc1 (stereo not given)
2. O=C(CC1c2ccccc2N=C(N2CCCCC2)N1c1ccccc1)NCc1ccc(NS(=O)(=O)c2ccc(F)cc2)cc1 (stereo not given)
3. Cc1ccc(S(=O)(=O)Nc2ccc(CNC(=O)CC3c4ccccc4N=C(N4CCCCC4)N3c3ccccc3)cc2)cc1 (stereo not given)
4. Nc1ccc(CNC(=O)CC2c3ccccc3N=C(N3CCCCC3)N2c2ccccc2)cc1 (stereo not given)
5. O=C(CC1c2ccccc2N=C(N2CCCCC2)N1c1ccccc1)NCc1ccccc1 (stereo not given)

## Result
1: 32.2; 2: 50.8; 3: 38.7; 4: 18.4; 5: 12

From: ChEMBL document CHEMBL1147453
